Origin of values: ChEMBL document CHEMBL1147798

- Test system: Receptor-type tyrosine-protein kinase FLT3 (Homo sapiens, UniProt P36888)
- Sequence (P36888 whole entry): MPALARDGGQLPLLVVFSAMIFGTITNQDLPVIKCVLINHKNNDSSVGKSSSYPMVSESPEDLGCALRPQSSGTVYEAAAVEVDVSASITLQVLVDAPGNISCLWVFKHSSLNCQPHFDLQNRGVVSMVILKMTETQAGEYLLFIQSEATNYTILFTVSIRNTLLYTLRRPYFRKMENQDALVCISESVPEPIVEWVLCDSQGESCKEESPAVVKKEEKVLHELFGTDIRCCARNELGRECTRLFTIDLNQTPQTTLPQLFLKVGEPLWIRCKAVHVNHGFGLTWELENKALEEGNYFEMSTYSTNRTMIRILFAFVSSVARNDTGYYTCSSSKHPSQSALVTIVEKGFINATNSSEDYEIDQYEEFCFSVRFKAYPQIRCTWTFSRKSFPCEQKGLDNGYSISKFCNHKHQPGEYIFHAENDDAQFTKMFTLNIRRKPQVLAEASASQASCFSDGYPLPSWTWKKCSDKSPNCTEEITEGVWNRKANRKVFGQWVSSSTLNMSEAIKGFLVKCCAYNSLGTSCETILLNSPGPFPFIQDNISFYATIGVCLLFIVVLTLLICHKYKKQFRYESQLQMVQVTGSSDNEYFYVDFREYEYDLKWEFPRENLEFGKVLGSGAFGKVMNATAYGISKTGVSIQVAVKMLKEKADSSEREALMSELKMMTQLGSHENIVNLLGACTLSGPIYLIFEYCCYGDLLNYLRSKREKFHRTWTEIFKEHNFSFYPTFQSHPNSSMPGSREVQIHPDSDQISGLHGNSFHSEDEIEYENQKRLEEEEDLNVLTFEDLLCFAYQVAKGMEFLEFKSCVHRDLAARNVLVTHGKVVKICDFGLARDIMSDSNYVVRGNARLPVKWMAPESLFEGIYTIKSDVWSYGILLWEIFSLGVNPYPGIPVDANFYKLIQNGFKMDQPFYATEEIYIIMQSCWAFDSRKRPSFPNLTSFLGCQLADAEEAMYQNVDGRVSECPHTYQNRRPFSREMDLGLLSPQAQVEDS
- Method summary: Inhibition of human FLT3
pIC50: −log10 of the molar value.

- Structure smiles: "O=C(c1cc2cc(O)ccc2[nH]1)c1cc2cc(O)ccc2[nH]1"
  Test system: "Receptor-type tyrosine-protein kinase FLT3 (Homo sapiens, UniProt P36888)"
  pIC50: 7.48
